# METHOD NOTES: Nephelometric Solubility Measurement
# Format: physicochemical
# RECORDED CONDITIONS: aqueous buffer, kinetic from dmso stock; phosphate buffered saline pH 7.4, 37° C., incubation 2 minutes
solubility at 2 min values by entry

# COMPOUND, solubility at 2 min
data = [
    ("CCOc1cc(C)c(-c2ccc(NC(=O)c3c(F)cccc3F)cc2)cn1 [Comparative example #3, reference compound]", "< 14 µM"),
    ("COc1ncc(-c2nn(C)c(=O)o2)cc1-c1ccc(NC(=O)c2c(F)cccc2F)cc1 [Comparative example #5, reference compound]", "< 11 µM"),
    ("COc1cc(OC)c(-c2cc(C(=O)Nc3c(F)cccc3F)nn2C)cn1 [Example 38]", "> 267 µM"),
]
